B1: 3'-5' exoribonuclease 1, residues 65 to 114; numbered along this chain, Q8IV48 (parent)
chain: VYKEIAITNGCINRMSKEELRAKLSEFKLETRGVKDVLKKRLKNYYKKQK

- Variants of: B1
- method: abundance fitness (aPCA) (normalised: wild type 0, dead -1); higher = more abundant; growth selection in yeast, the domain comes from the species named
- recorded conditions: Homo sapiens
I'd appreciate it if you could label each record using abundance fitness and these ranges: Low = under -0.3, Medium = from -0.3 up to -0.04, High = -0.04 and over

# biopolymer sequence, assigned label
data = [
    ("VYKEIAITNGCINRMSKEEWRAKLSEFKLETRGVKDVLKKRLKNYYKKQK [L20W]", "Low"),
    ("VYKEIAITNGCINRMSKRELRAKLSEFKLETRGVKDVLKKRLKNYYKKQK [E18R]", "High"),
    ("VYKEIAITNGCINRMSKEELRAKLSEFKLETRGVKDALKKRLKNYYKKQK [V37A]", "High"),
    ("VYKEIATTNGCINRMSKEELRAKLSEFKLETRGVKDVLKKRLKNYYKKQK [I7T]", "Medium"),
    ("VYKEIAITNGCINRMSKEELRAKLSEFKLETRGVKDVLTKRLKNYYKKQK [K39T]", "Low"),
    ("VYKEIAITNGCINRMSKEELQAKLSEFKLETRGVKDVLKKRLKNYYKKQK [R21Q]", "Medium"),
    ("VYKEIAITNGCINRMSKGELRAKLSEFKLETRGVKDVLKKRLKNYYKKQK [E18G]", "High"),
    ("VYKEIAITNGCINRKSKEELRAKLSEFKLETRGVKDVLKKRLKNYYKKQK [M15K]", "Low"),
    ("VYKEIAITNGCINRMSKEELRAKLSEFKLERRGVKDVLKKRLKNYYKKQK [T31R]", "Low"),
    ("VYKEIAITNGCINRMSKEELRALLSEFKLETRGVKDVLKKRLKNYYKKQK [K23L]", "Medium"),
    ("VDKEIAITNGCINRMSKEELRAKLSEFKLETRGVKDVLKKRLKNYYKKQK [Y2D]", "High"),
    ("VYKEIAITNGCINLMSKEELRAKLSEFKLETRGVKDVLKKRLKNYYKKQK [R14L]", "Low"),
]
